Kindly state pEC50 for each of the entries shown.
molecular target: UniProt P29474; assay: Inhibition of human eNOS expressed in HEK293 cells assessed as inhibition A23187 induced nitric oxide production incubated for 24 hrs measured after 18 hrs of […] challenge using 2,3-diaminonaphthalene by fluorescence assay
Sequence (P29474 whole entry): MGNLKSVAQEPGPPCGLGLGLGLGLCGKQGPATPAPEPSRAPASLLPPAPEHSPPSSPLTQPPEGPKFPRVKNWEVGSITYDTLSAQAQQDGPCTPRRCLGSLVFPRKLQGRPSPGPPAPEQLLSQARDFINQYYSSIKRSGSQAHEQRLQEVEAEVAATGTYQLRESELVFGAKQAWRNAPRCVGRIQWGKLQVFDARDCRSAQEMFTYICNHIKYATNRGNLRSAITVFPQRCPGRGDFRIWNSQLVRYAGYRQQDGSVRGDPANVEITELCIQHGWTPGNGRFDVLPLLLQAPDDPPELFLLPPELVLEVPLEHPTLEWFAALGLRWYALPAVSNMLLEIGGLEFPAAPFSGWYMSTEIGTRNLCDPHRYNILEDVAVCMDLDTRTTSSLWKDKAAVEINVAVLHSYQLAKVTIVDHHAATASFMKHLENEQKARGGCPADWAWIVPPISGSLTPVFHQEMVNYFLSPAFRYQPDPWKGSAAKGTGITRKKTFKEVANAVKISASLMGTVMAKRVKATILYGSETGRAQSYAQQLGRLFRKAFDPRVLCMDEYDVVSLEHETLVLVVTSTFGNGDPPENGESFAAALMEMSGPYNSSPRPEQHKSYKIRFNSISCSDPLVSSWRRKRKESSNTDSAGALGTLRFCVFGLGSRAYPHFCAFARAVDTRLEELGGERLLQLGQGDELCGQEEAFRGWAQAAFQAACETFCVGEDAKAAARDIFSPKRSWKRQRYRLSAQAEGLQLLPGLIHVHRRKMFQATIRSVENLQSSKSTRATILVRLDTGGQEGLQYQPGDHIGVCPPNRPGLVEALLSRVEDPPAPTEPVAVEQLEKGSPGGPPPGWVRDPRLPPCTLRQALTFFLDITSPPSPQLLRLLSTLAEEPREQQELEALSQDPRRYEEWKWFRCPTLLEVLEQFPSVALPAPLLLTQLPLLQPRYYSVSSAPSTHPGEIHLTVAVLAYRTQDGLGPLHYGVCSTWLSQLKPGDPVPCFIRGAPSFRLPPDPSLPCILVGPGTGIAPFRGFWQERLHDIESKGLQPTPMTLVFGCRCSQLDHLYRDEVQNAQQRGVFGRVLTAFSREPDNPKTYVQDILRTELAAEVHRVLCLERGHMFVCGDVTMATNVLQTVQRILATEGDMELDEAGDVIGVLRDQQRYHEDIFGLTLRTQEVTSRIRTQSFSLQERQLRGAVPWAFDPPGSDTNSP
pEC50: −log10 of the molar value.

Take a look at these entries with their results.
> print(dat)
                               smilesrecord  readoutvalue
1  Cc1ccncc1-c1nc2ccccc2n1Cc1cc(=O)[nH]c2c(F)c(F)ccc12        < 4.00
2  CC(C)(C)c1nc2ccccc2n1Cc1cc(=O)[nH]c2c(F)c(F)ccc12        < 4.00
3  O=c1cc(Cn2c(C3CCC3)nc3cccnc32)c2ccc(F)c(F)c2[nH]1        < 4.00
4  CC(C)Cc1nc2nccnc2n1Cc1cc(=O)[nH]c2c(F)cccc12        < 4.00

Next up:
Give recorded pEC50. `CC(C)Cc1nc2ccccc2n1Cc1cc(=O)[nH]c2c(F)c(F)ccc12`
< 4.00
